This listing pairs binders with measured kon.
# TARGET ENTITY: T1, wild type human CD47 (Acro Biosystems, cat. no. CD7-H5227) (human, UniProt Q08722 19-139)
# T1 construct: Bought protein used as SPR analyte; also called Human CD47 wt; wild-type CD47
# T1 sequence (Q08722 19-139 limits assumed): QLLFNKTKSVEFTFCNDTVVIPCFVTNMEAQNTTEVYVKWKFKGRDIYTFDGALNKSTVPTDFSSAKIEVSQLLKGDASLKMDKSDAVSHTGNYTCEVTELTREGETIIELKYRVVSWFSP
# PROTOCOL TEXT: SPR, IgG captured, CD47 in flow; exp 1;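 further: biacore T200 SPR using IgG from supernatants of transfected HEK293 cells, rate constants fitted to association and dissociation curves, Kd derived from koff over kon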
PARAMETER: kon

[[record]]
binder = "108VH5 / 108VL1.M5 (antibody, human IgG4 S228P, kappa, V domains shown, Full-length IgG4 (S228P), kappa; also called VH5 VL1.M5) VH: EVQLVQSGAEVKKPGASVKVSCKASGYSFTHHWIHWVRQAPGQGLEWMGMIDPSDSETRLSQKFKDRVTMTRDTSTSTVYMELSSLRSEDTAVYYCARLGRYYFDYWGQGTLVTVSS VL: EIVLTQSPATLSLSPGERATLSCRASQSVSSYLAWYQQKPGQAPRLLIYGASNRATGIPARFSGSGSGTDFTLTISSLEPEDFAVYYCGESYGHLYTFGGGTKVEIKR"
measured_value = "780000 M⁻¹ s⁻¹"

[[record]]
binder = "108VH5.M5 / 108VL1.M5 (antibody, human IgG4 S228P, kappa, V domains shown, Full-length IgG4 (S228P), kappa; also called VH5.M5 VL1.M5) VH: EVQLVQSGAEVKKPGASVKVSCKASGYTFTHHWIHWVRQAPGQGLEWMGMIDASDSETRLSQKFKDRVTMTRDTSTSTVYMELSSLRSEDTAVYYCARLGRYYFDYWGQGTLVTVSS VL: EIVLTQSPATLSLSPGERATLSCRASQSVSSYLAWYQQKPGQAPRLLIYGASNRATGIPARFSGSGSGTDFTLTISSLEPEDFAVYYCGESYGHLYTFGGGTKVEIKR"
measured_value = "720000 M⁻¹ s⁻¹"

[[record]]
binder = "108VH5.M6 / 108VL1.M5 (antibody, human IgG4 S228P, kappa, V domains shown, Full-length IgG4 (S228P), kappa; also called VH5.M6 VL1.M5) VH: EVQLVQSGAEVKKPGASVKVSCKASGYTFTHHYMHWVRQAPGQGLEWMGMIDASDSETRLSQKFKDRVTMTRDTSTSTVYMELSSLRSEDTAVYYCARLGRYYFDYWGQGTLVTVSS VL: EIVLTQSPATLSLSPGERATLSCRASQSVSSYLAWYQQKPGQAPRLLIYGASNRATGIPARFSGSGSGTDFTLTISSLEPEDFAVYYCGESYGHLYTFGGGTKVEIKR"
measured_value = "490000 M⁻¹ s⁻¹"

